tested on: U251 CNS; test: NCI tumour cell line growth inhibition, 48 h
testReadout: TGI

// CCOC(=O)C1(C)C2=CC=C(O2)C(C)(C)C2=CC=C(O2)C(C)(C)C2=CC=C(O2)C(C)(C)C2=CC=C1O2 : TGI value = > 100 µM

TGI reading for CC(C)=NC(C(=O)O)C(C)(C)S (stereo not given) : > 100 µM

Recorded TGI (compound C=CCc1cc(OC)c(O)c(C(=O)/C=C/c2ccc(OC)c(OC)c2)c1 ): 37.8 µM

In plain terms, O=C1CCC2(c3ccccc3)OCC([C@@H](O)c3ccccc3)N12 (stereo not given in full) has a documented TGI of > 100 µM

GET /value?item= CC1CN1c1c(C(=O)/C=C/c2ccc(F)cc2)c(-c2ccccc2)nn(C)c1=O (stereo not given) &field=TGI returns 28.9 µM

Entry CCc1cccc(C(C)C)c1NC(=O)C(=O)Nn1c(=S)[nH]c2ccccc2c1=O ; TGI = > 100 µM

The reported value for O=S(=O)(N=[Se](=O)(c1ccccc1)c1ccccc1)c1ccccc1 in terms of TGI is > 100 µM

Record C[n+]1c(-c2ccc(/C=N\Nc3ccnc(N/N=C/c4ccc(-c5cn6ccsc6[n+]5C)cc4)n3)cc2)cn2ccsc21 . Reported TGI: 94.5 µM

Briefly, TGI measured for C=C1[C@@H](OC(C)=O)/C=C/C2C3C(=O)[C@@](C)(OC(C)=O)[C@H]([C@H](OC(C)=O)[C@]4(O)[C@@H](C)C(=O)O[C@H]4[C@H]1Cl)[C@@]23C (stereo not given in full) : > 100 µM

# compound Cc1cc(C)c([O-])c(-[n+]2c(-c3ccccc3)cc(-c3ccccc3)cc2-c2ccccc2)c1 ; its TGI = 14.9 µM

* * *

system: ACHN renal; assay: NCI tumour cell line growth inhibition, 48 h
Give TGI for every item shown.

Lab note: O=C(O)c1cc(-c2ccc(-c3ccccc3)cc2)nc2cc3ccccc3cc12 gave TGI of > 100 µM

For reference, reported TGI for CCN1CCCCCCCCCC(=N/O)/C(=N\O)C1 stands at > 100 µM

Input COc1cccc(N2C(=N)/C(=C3\Nc4ccccc4S3)CC2=O)c1 . Output TGI: > 100 µM

The measured TGI associated with Cc1cc2c(cc1Cl)SC(NNC(=O)c1ccccc1)=NS2(=O)=O reads > 10 µM

Record O=[N+]([O-])c1ccccc1S(=O)(=O)c1cccc2c1NCCC2 . Reported TGI: > 100 µM

Measured TGI, CC(C)(C)OC(=O)NC(Cc1ccc(OC(C)(C)C)cc1)C(=O)N[C@H]1CC[C@H](C(=O)O)C1 (some centres not stated) : > 100 µM

The molecule identified as CC(=O)OC/C=C\Cn1ncc(=O)[nH]c1=O registered its TGI at 43.8 µM

For record COC(=O)c1ccccc1/C=C1\Cc2ccc3c(c2C1=O)CCC3 the listed TGI is > 100 µM

Form: molecule = [CH3][Ge]([CH3])([CH2]CC#N)[S]c1ccccc1 ; TGI = 33.1 µM

molecule O=c1nc(N2CCCCC2)sc2[nH]c3ccccc3c12 , TGI observed: > 100 µM

Documented TGI of CCP(C)(=O)CC : > 100 µM

The recorded TGI for entry O=C(O)C1CC[N-]CC1.O=C(O)C1CC[N-]CC1.[NH2-].[NH2-].[Pt+4] equals > 100 µM

Documented TGI of COC(=O)C1C(=O)C(C(=O)OC)C2CCC1N2C (configuration not stated) : > 100 µM

Note to self: TGI recorded for C=C1[C@@H](OC(C)=O)/C=C/C2C3C(=O)[C@@](C)(OC(C)=O)[C@H]([C@H](OC(C)=O)[C@]4(O)[C@@H](C)C(=O)O[C@H]4[C@H]1Cl)[C@@]23C (some centres not stated) was > 100 µM

# TGI (molecule: COC(=O)c1cc(C#N)[nH]c1-c1ccc(Br)s1 ) is 31.9 µM

Entry COc1ccc(/C=C/C(=O)C(=O)/C=C/c2ccc(OC)c(OC)c2)cc1OC ; TGI = 5.4 µM

So, CCCCCCCCCCCCCCCC(=O)OCC1OC(OCCCC)[C@H](O[C@@H]2OC(C)C(OC(=O)CCC)C(O)C2O)C(O)C1O (some centres not stated) ? Its TGI was 35.2 µM

The measured TGI associated with CCc1nc(N)nc(N)c1-c1ccc(N2CCNCC2)c([N+](=O)[O-])c1 reads > 100 µM

// sample CC1(C)CCC2(C(=O)O)C(O)CC3(C)C(=CCC4C5(C)CCC(OC6OCC(O)C(O)C6OC6OCC(O)C(O)C6OC6OCC(O)C(OC7OC(CO)C(O)C(O)C7O)C6O)C(C)(C)C5CCC43C)C2C1 (configuration not stated) , its TGI was > 100 µM

Field TGI (entry Oc1ccc(/C=N/NC(=S)Nc2ccccc2)nc1 ) reads > 100 µM

Kindly note the recorded TGI for CC(=O)[CH-]C(=O)c1ccccc1.CC(=O)[CH-]C(=O)c1ccccc1.CC(=O)[CH-]C(=O)c1ccccc1.[Cl-].[Hf+4] , which is > 100 µM

TGI measured on Nc1ccc(C2(c3ccc(N)cc3)C3CC4CC(C3)CC2C4)cc1 = 32.7 µM

The values you see were collected from PubChem BioAssay (NCI).
